Reference for the values: the supplement of paper PMC9170038

Catalogue of apparent KD of MS2 coat protein values
# Tested on: MS2 coat protein
# Measurement Notes: apparent KD of MS2 coat protein; designed switch direction (-1 OFF switch, 1 ON switch): -1; higher = weaker reporter binding
# Measurement Setup: Eterna round: R95; input ligand: none
Enter your answer as a number in nM; do not include the unit.

Sample answers from the record:
| Sequence Content | Endpoint | Quantitative Readout |
| --- | --- | --- |
| UAAAAGAAGGUCAGGAUAUGUAGUGAGCAAUCAGGACAGAAGGGACAUGAGGAUCACCCAUGUAACAGGGUAAA [Eninares] (puzzle: Brourd's mod of Exclusion 4) | apparent KD of MS2 coat protein | 43.1 |
| AAAUAACAAGCAAGAUCCUACAUGAGGAUCACCCAUGUGCUCGUCUUGUAAAGUACUAUCACGAAAGUGAUAGUACA [Sensor 3, v1 - 12] (puzzle: Sensor v3, turn-off variant 1) | apparent KD of MS2 coat protein | 23 |
| UACCGGCGGACCGAAGCUUUUUGCUCGUCUUAUACUACAACAUGAGGAUCACCCAUGUGGUGGUGGUCCGUUGUAGU [JL ViennaUCT Bitein mod 4] (puzzle: Sensor v3, turn-off variant 2) | apparent KD of MS2 coat protein | 13.5 |
| AGUACUAACACGAAAGUGUUAGUACAAUAAGCUUGUAGAACAUGAGGAUCACCCAUGUCCUCAUAAGCUCGUCUUAU [Mat - Sensor v3 - Turn-off var 2 - D48] (puzzle: Sensor v3, turn-off variant 2) | apparent KD of MS2 coat protein | 53.5 |

query: Could you share what apparent KD of MS2 coat protein was measured for CCGGAAAUGCAGGAUAUCGUAUCGGAUACGAUACGAGAAGGGUAGACAUGAGGAUCACCCAUGUGUCCUACCGG [Fiskers Ex 6 - 50] (puzzle: Exclusion 6) , tested on MS2 coat protein?
result: 101

====

# Test system: MS2 coat protein
# Measurement Notes: apparent KD of MS2 coat protein, switch OFF state (with FMN for OFF switches, without FMN for ON switches); designed switch direction (-1 OFF switch, 1 ON switch): 1; higher = weaker reporter binding
# Measurement Setup: FMN input: 0 or 200 uM; Eterna round: R93 (includes R88 designs)
Catalogue of apparent KD of MS2 coat protein values
Enter your answer as a number in nM; do not include the unit.

Sample answers from the record:
| Sequence Content | apparent KD of MS2 coat protein (nM) |
| --- | --- |
| AAUCCAAAUAGUCAGGAUAUCAAAAAUAAGACAUGAGGAUCACCCAUGUACUAAGUAAAAGUAAAUGAGAAGGGACAGGGUGAAA [JR_SS002_Sub402] | 145 |
| AAUAUACAUGAGGAUCACCCAUGUUAGGUGGGACUAGGAUAUCAGAGUACAUAAUGAACAUGAGAAGGAGUAUCAA [JR_SS001_Sub404] | 110 |
| AGGAGACAUGAGGAUCACCCAUGUGAGAAGAGGCGAGGAUAUCGAAAAAAAGAAAGAAAACGAGAAGGCGCGAGAA [salish99-SS1-015] | 64.5 |

query: Which apparent KD of MS2 coat protein value belongs to AAGAUACAUGAGGAUCACCCAUGUCACCUCACACGAGGAUAUCUGUGCAGUACUCAGUACGGAGAAGGCGUGGAAA [Mat - Same State 1 - Hyphema mod - D98] ?
result: 56.4

query: Also need AAUAUACAUGAGGAUCACCCAUGUUUUAAUAACGCAGGAUAUACGGGUGAAAACAGCAUAGUAGAAGGGCGAAAAA [SameState1 Malc#1] , thanks.
result: 106

query: Also need AUAAAUAAAAGCGAGGAUAUCCAAAAAAAAACAUGAGGAUCACCCAUGUAAAAGAAAAUAAAAUGGGAGAAGGCGCAAAAUAAAU [SS2 M 9] , thanks.
result: 7.54

====

# Tested on: K4 kissing-loop RNA reporter
# Measurement Notes: apparent KD of K4 kissing-loop reporter; higher = weaker reporter binding
# Measurement Setup: Eterna round: R107; input ligand: theophylline 20 uM
Mark Condition not met for apparent KD of K4 kissing-loop reporter values under 200 nM, and Condition met for everything at or above.

Here are 4 sequences together with their reported answers.
| Sequence Content | Assigned Category |
| --- | --- |
| GUCUCGAGUGAUGUUCGGGUCGAUUGGGAAGGAGCGCCCGGAAGGGCAGGUAGGUCGCCCGGGCCGCGCGGGAAACCGCGCGUCC [#2 Same State - Arginine A Attempt #8 (HarryS)] | Condition not met |
| AGGCGGCAUAAUUGACUGAAAAGAAAUUAACGAGGACCGGUACGGCCGCCACUCGAACACCAGUGAUGUUGGUAUGGGAUAAUUU [Exclusion Tryptophan A GF 18] | Condition not met |
| CGCGGCCGGCCGGAUACCAGUGACCCGCUGGAAACCGCGGGCCCAGAGUGAUGUUCGGGACACCCUUGGCAGCCGCCUGGGCGUG [#2 Same State - Theophylline B Attempt #2 (HarryS)] | Condition met |
| UAUAUAGUGAUGUUAUAUGGGAAGGAGUUACGAGGACCGGUACGGCCGCCACUCGAAACGAGUGAGGAUUUGGGAGAUUGGGUUU [SSTryptA.S] | Condition met |

Now look at this one.
query: Dear colleague, could you confirm whether UCCUGCAAUCGUCCACGAAAGUGGAUCGAUACCAGAGUCGAAAGACUCCCUUGGCAGCGAGUGAUGUUCGAAGCAGGUAAAUAAA has apparent KD of K4 kissing-loop reporter at or above 200 nM?
result: Condition met

====

# Test system: K4 kissing-loop RNA reporter
# Measurement Notes: apparent KD of K4 kissing-loop reporter; higher = weaker reporter binding
# Measurement Setup: Eterna round: R107; input ligand: theophylline 20 uM
Endpoint: apparent KD of K4 kissing-loop reporter

Sample answers from the record:
| Sequence Content | System Tested | apparent KD of K4 kissing-loop reporter |
| --- | --- | --- |
| AUGUAUGAAUUAGGAUAUCGUGAGCCAUGCAUAUAUAUGAUAAAUGGAUAUGUCGUAGUGAUGUUACGAGAAGGAGUGUGGAGUA [KL-XFMN-B2] | K4 kissing-loop RNA reporter | 90 nM |
| UAUUCUGUUCGAAAGAACGGAAUUUCGGAAGGAGCGAGAGAAAUCUCAGGUAGGUCGCCGAAAUUAUUAGAUAGUGAUGUUAUCU [Arginine A K4 4] | K4 kissing-loop RNA reporter | 177 nM |
| AGUUAUGUAUCAGGAUAUUAGUGAUGUUUGUUUUUGUUAGUGAUGUUGAUAUUUGUUUUAUGUAUUUAAGAAGGGAUUGAGAUGU [qsszmullin] | K4 kissing-loop RNA reporter | 29.4 nM |

query: Could you share what apparent KD of K4 kissing-loop reporter was measured for AAUAGGGAUAGUGAUGUUAUCCCUUAUGAUACCAGUGCCAUCGGACACCCUUGGCAGCAUACGGGCAGUGAUGUUGUUCUUGGAG [Exclusion Theophylline A GF 15] , tested on K4 kissing-loop RNA reporter?;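 further: bound reporter read as fluorescence of individual clusters on recovered sequencing chips by microscopy, with normalized cluster intensities fitted with a binding model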
result: 76.5 nM

query: Also need AUGGACUCUUCGGAGUCCGCCUUAAGGGAUACCAGUGAUGUUGGUCACCCUUGGCAGCCUAGAAAGGAAGCCACCAAAGGUGGCA [Omei v1 mod #OpenEnded #Sliding] , thanks.
result: 160 nM

query: Also need AGACGAGAUGAAGGAUAUGCGGACAAAGUGAUGUUUUGUCCGAAAGUAGGCAGUAAUAUCGAAAAUGCAGAAGGUCAAGAACAUA [theeternabot_exclusion_KL_FMN_B_36] , thanks.
result: 256 nM

query: Also need AGCAGUCACUCGAAAACCAUCGAAGAUGGACGAGGACCGGUACGGCCGCCACUCGGAGUGAUGUUCCGAAGACUGCAAAAUAAAA [#SwitchBubble 16] , thanks.
result: 346 nM

query: Also need AGUAGUUGGGCGGCCGCCACUGGAACAGCUUUGUCAAAGACAGAGCACUAGAGUGAUGUUCUAGCUAGGACCGGGUCCAACUACA [whbob_SS_Tryp_B_t17] , thanks.
result: 503 nM

query: Also need CCGCCAUCAUCAGAUACCAGACUGAUGGCGGUAACCGCCAAGCGAGUGAUGUUCGCAUCAGUCCCUUGGCAGCUGAUGAAGACUG [Theo B SS t4] , thanks.
result: 104 nM

====

# System: MS2 coat protein
# Measurement Notes: apparent KD of MS2 coat protein; designed switch direction (-1 OFF switch, 1 ON switch): -1; higher = weaker reporter binding
# Measurement Setup: input ligand: none
Endpoint: apparent KD of MS2 coat protein

query: Which apparent KD of MS2 coat protein value belongs to CGGUGUAGAGGAUAUACGUGGAUGUAAGUUCAUGAUAUUUUACAUGAGGAUCACCCAUGUAGAAGGCUAUAGCG [JR_Ex2_Sub079] (Eterna round: R97, puzzle: Exclusion 2) ?
result: 351 nM

query: Also need AGCCUACAUGAGGAUCACCCAUGUCAGGAUAUCUCGCGACAUGUCAAGUUCACGUUGCAGAGAAGGGACUCGGG [Ononxe] (Eterna round: R96, puzzle: Exclusion 1) , thanks.
result: 54.1 nM

query: Also need GCGUUUUGGUGAGGAUAUCGGCCCGAAACCGGGCAACAUGAGGAUCACCCAUGUACGUGAUCCUGCGAGAAGGCACCGAUUAUA [Bedi] (Eterna round: R96, puzzle: Exclusion NG 2) , thanks.
result: 964 nM

query: Also need UUUUUAAAUGAAGGAUAUACUUAACAUGAGGAUCACCCAUGUGGUGUUGUGAGUGAGUGAGUUUAGUAGAAGGUCAAUUCUUUU [JMF's solution 86] (Eterna round: R96, puzzle: Exclusion NG 2) , thanks.
result: 334 nM

query: Also need AGCUGGUCAGGAUAUUUGGAGGGACUCCAAUGGUCCACGACGGAGAAGGGACAUGAGGAUCACCCAUGUGGUCG [Eternabot (L2) Solution 13] (Eterna round: R97, puzzle: Exclusion 4) , thanks.
result: 115 nM

query: Also need CAUAAUGCAGGAUAUACCAAAUGGCAGUGAAUGCGUGCGCAACAUGAGGAUCACCCAUGUAGAAGGGCACAAGA [Eternabot (Original) Solution 27] (Eterna round: R97, puzzle: Exclusion 2) , thanks.
result: 13.5 nM

query: Also need UGAUGACAUGAGGAUCACCCAUGUCAGGAUAUUGAAGUUGAAGUGAAAGCUUCGGCUUCGAGAAGGGACUGUCG [-29.3, -26.3 kcal, A 28% sequence 3] (Eterna round: R97, puzzle: Exclusion 1) , thanks.
result: 25 nM

query: Also need AACAAGCUUUAAAGAUCCCACAUGAGGAUCACCCAUGUGCUCGUCUUAUAACGUACUGUGACGAAAGUCACGGUACG [JL TOV1 3.25] (Eterna round: R97, puzzle: Sensor, turn-off variant 1) , thanks.
result: 37.4 nM

query: Also need UAUUAGCAAGCGAGAUCCCACAUGAGGAUCACCCAUGUGCUCGUGCAUCCAGAAUUACUGGGUGCUGCUCGUCUUAU [Winner reversed engineered 13] (Eterna round: R97, puzzle: Sensor, turn-off variant 1) , thanks.
result: 14.8 nM

query: Also need UUAGUGUUAGGAUAUCCGGCUCCAAGGCACCAAAACCGGGCGGAGAAGGAACAUGAGGAUCACCCAUGUGACCA [Eternabot (Original) Solution 31] (Eterna round: R97, puzzle: Exclusion 4) , thanks.
result: 49.1 nM

query: Also need UGGUCACAUGAGGAUCACCCAUGUCAGGAUAUCGUCACUGGAGCUGCGGCUCCAGUGACGAGAAGGGACAUAAU [E1/6-A3] (Eterna round: R97, puzzle: Exclusion 1) , thanks.
result: 253 nM

query: Also need UACAUGAGGAUCACCCAUGUUUUGUCGUGUAUGGUACCCGUUUAGGAUAUCGUGUUAUUGGACCGCGAGAAGGAGAGUAUCAUU [Excl-NG3-LRO05] (Eterna round: R96, puzzle: Exclusion NG 3) , thanks.
result: 31.6 nM

query: Also need AGCUAGUCAGUAGGAUAUGUAGGAUAUGUGGUUGAGGUUCACCCAACCACAUCAACGACAGAAGGACAGAAGGACUGGUUAGCA [pwkr exNG2 2xFMN 1xF5.5] (Eterna round: R96, puzzle: Exclusion NG 2) , thanks.
result: 2810 nM

query: Also need AGUUGUAAAGAGGAUAUCCAUCCCGGCAUCCAUGGAGAAGGUUUAACAUGAGGAUCACCCAUGUCAUGAUCCUC [Eternabot (L2) Solution 3] (Eterna round: R97, puzzle: Exclusion 6) , thanks.
result: 692 nM

query: Also need GUCGUGCAGCUUUGCUGUACGAGUACAUGAGGAUCACCCAUGUAGGAUAUGGUACGCUUUGCGUGCCAGAAGGGCGUGCGUUGG [salish99_ExNG3_r04_005] (Eterna round: R96, puzzle: Exclusion NG 3) , thanks.
result: 34.6 nM

query: Also need GGCCGGCGAGGAUAUACCGAAUGAAGGUGAUAUGAAUGAUUACAUGAGGAUCACCCAUGUAGAAGGCGCCGGCC [Default title] (Eterna round: R97, puzzle: Exclusion 2) , thanks.
result: 146 nM

query: Also need UUUCUACAUGUAGGAUAUGCGUGGCGAAGCUAUGCAGAAGGACAUGAGGAUCACCCAUGUUUUAGCGUCUGCGUACAGAUGCGU [JL ENG1 1.49] (Eterna round: R96, puzzle: Exclusion NG 1) , thanks.
result: 20.6 nM

query: Also need CCGGAACAUGAGGAUCACCCAUGUCAGGAUAUUCCAAAAUCGUCGAUAGACGAUAACAGGAGAAGGGACACCGG [Mat - Exclusion 1 - Eli Mod - D30] (Eterna round: R97, puzzle: Exclusion 1) , thanks.
result: 15.7 nM
